Target: BRD4 (BDI-BDII_K57-K550) (Homo sapiens, UniProt O60885)
Experiment: TR-FRET bromodomain binding assay
Details: His-tagged tandem bromodomain, Alexa647-labeled probe; Ki calculated from IC50s, probe Kd and probe concentration
PROPERTY_LABEL: Ki (nM)

[[record]]
chemical_smiles = "Cn1cc2c(cc1=O)OCCCCc1cc(Cl)ccc1Oc1ncc(CO)cc1-2"
observed_result = 15.7


A. CCS(=O)(=O)c1cnc2c(c1)-c1cn(C)c(=O)cc1OCCCCc1cc(Cl)ccc1O2
B. Cn1cc2c(cc1=O)OCCCCc1cc(Cl)ccc1Oc1ncccc1-2
C. Cn1cc2c(cc1=O)OCCCc1cc(Cl)ccc1Oc1ccc(NS(C)(=O)=O)cc1-2
D. CCS(=O)(=O)Nc1ccc2c(c1)-c1cn(C)c(=O)cc1OCCCCc1cc(OC(F)(F)F)ccc1O2
Sort the molecules on Ki; start with the lowest figure. # answer = labels listed in requested order D, C, A, B
(D: 0.87 nM, C: 2.16 nM, A: 6.92 nM, B: 12.2 nM)
